Origin of the recorded values: PubChem BioAssay AID504444

Assay: Nrf2 qHTS screen for inhibitors; further: nearly all actives have a fitted effect of over 60% in size
Settings: A549 ARE-Fluc reporter, luciferase luminescence, 18-24 h; series mostly up to 46 µM
The campaign covered roughly 360,000 compounds. About 7,500 (2.1%) were called active. Another 20% or so got no clear call; they are omitted. The call rests on the fitted dose curve; in most records, active means well fitted inhibition curve with a large enough effect; inconclusive means small, poorly fitted or top-dose-only effect, or effect the other way; inactive means flat fitted curve, though single readings scatter. For the sample, actives were picked, then their nearest neighbours and some compounds at random.
Bench note: report the call from active, inactive

Molecule: O=C(Nc1ccc(F)cc1)c1ccc(S(=O)(=O)NCc2cccnc2)cc1
Category Label: active

Molecule: CCN(CC)S(=O)(=O)c1ccc(Cl)c(NC(=O)c2ccncc2)c1
Category Label: inactive

Molecule: CC(C)NC(=O)C1CCC(Cn2c(=O)c3sccc3n(Cc3ccc(F)cc3)c2=O)CC1 (centres undefined)
Category Label: inactive

GET /call?item= "O=C(NNS(=O)(=O)c1ccc(F)cc1)c1ccc([N+](=O)[O-])cc1Cl" returns the recorded outcome of this test. inactive

----------
Test: Nrf2 qHTS screen for inhibitors; further: nearly all actives have a fitted effect of over 60% in size
Conditions: A549 ARE-Fluc reporter, luciferase luminescence, 18-24 h; series mostly up to 46 µM
About 7,500 (2.1%) of roughly 360,000 compounds were called active. About 20% were inconclusive and are not listed. Calls follow the shape of the dose curve; as a rule, active = well fitted inhibition curve with a large enough effect; inconclusive = small, poorly fitted or top-dose-only effect, or effect the other way; inactive = flat fitted curve, though single readings scatter. What follows is part of a selection rich in actives, with near analogues and random picks from the rest.
Bench note: report the call from active, inactive

GET /call?item= "Cc1nc(N2CCOCC2)c2c(C)c(C(=O)Nc3ccc(C(F)(F)F)cc3)sc2n1" returns the recorded outcome of this test. active

GET /call?item= "Cc1ccc(-n2c(=O)c3cccnc3n2CC(=O)NCc2ccc(F)cc2)cc1C" returns the recorded outcome of this test. inactive

GET /call?item= "CCOC(=O)c1cnc(SCc2nc(N)nc(Nc3ccc(OC)cc3)n2)nc1N" returns the recorded outcome of this test. inactive

GET /call?item= Cc1n[nH]c(C)c1S(=O)(=O)N1CCCC(C(=O)NCC2COc3ccccc3O2)C1 (centres undefined) returns the recorded outcome of this test. inactive

GET /call?item= "CCOC(=O)c1c(-c2ccccc2)oc2cc(Br)c(O)cc12" returns the recorded outcome of this test. inactive

GET /call?item= "Cc1cc(C)n(-c2c(F)c(F)c(COC(=O)c3ccccc3)c(F)c2F)n1" returns the recorded outcome of this test. inactive

----------
Test: Nrf2 qHTS screen for inhibitors; further: nearly all actives have a fitted effect of over 60% in size
Details: A549 ARE-Fluc reporter, luciferase luminescence, 18-24 h; series mostly up to 46 µM
Description: NIH Molecular Libraries Probe Production Network [MLPCN] NIH Chemical Genomics Center [NCGC] Assay Provider: Shyam Biswal, Johns Hopkins University […] This is the Nrf2 activity measured in the luminescent read. […] A concentration-response assay was performed with A549 ARE_Fluc cells which are suspended in 5% FBS OPTI-MEM. […] Afterwards another ViewLux read is performed using the clear filter to get a luminescent read with the settings of 40 second exposure, 2x binning, and high gain. […]
Screen size: about 360,000 compounds; about 7,500 (2.1%) were called active. Roughly 20% stayed inconclusive and do not appear here. Calls follow the shape of the dose curve; as a rule, active = well fitted inhibition curve with a large enough effect; inconclusive = small, poorly fitted or top-dose-only effect, or effect the other way; inactive = flat fitted curve, though single readings scatter. Many of the other results were omitted from the sample, so actives are more common in it than they were.
Bench note: report the call from active, inactive

Reference set, count: 5
Structure String: Cn1nnnc1SCCCNCc1cccc(OCc2ccc(Cl)cc2)c1
Category Label: inactive
--
Structure String: CCCn1c2ccccc2c2cnn(CC(=O)N(CC)c3cc(C)ccc3C)c(=O)c21
Category Label: inactive
--
Structure String: O=C(Cn1cc(SCc2cccc(Cl)c2)c2ccccc21)N1CCCCC1
Category Label: inactive
--
Structure String: O=C(N/N=C/c1ccccn1)c1ccc(S(=O)(=O)N2CCCCCC2)cc1
Category Label: inactive
--
Structure String: Cc1nc2ccn(Cc3cccnc3)c(=O)c2cc1C(=O)N1CCN(c2ccccc2F)CC1
Category Label: inactive

GET /call?item= "O=S(=O)(c1ccc2c(c1)OCCO2)N1CCN(S(=O)(=O)c2cc(F)ccc2F)CC1" returns the recorded outcome of this test. inactive

GET /call?item= "C=CCn1c(C)cc(C2=NNC(=NCC)SC2)c1C" returns the recorded outcome of this test. active

GET /call?item= "O=C(N/N=C/c1ccccn1)c1cccc(NC(=O)c2ccc(Cl)cc2)c1" returns the recorded outcome of this test. active

----------
Assay: Nrf2 qHTS screen for inhibitors; further: nearly all actives have a fitted effect of over 60% in size
Conditions: A549 ARE-Fluc reporter, luciferase luminescence, 18-24 h; series mostly up to 46 µM
In all, about 360,000 compounds went through this assay and about 7,500 (2.1%) were called active. Inconclusive results (about 20%) are left out. The call rests on the fitted dose curve; in most records, active means well fitted inhibition curve with a large enough effect; inconclusive means small, poorly fitted or top-dose-only effect, or effect the other way; inactive means flat fitted curve, though single readings scatter. For the sample, actives were picked, then their nearest neighbours and some compounds at random.
Bench note: report the call from active, inactive

Reference set, count: 2
Compound: Cc1cc(-c2ccc(C)c(S(=O)(=O)NCCCN(Cc3ccccc3)C(C)C)c2)on1
Category Label: inactive

Compound: CCN(C[C@H]1N[C@@](CC)(C(=O)OC)[C@H]2C(=O)N(Cc3ccccc3)C(=O)[C@@H]12)S(=O)(=O)c1ccccc1
Category Label: inactive

GET /call?item= COC(=O)C(C)Sc1nc2c(c(=O)n(C)c(=O)n2C)n1Cc1cccc(C)c1 (stereo not drawn) returns the recorded outcome of this test. inactive

----------
Test: Nrf2 qHTS screen for inhibitors; further: nearly all actives have a fitted effect of over 60% in size
Settings: A549 ARE-Fluc reporter, luciferase luminescence, 18-24 h; series mostly up to 46 µM
Screen size: about 360,000 compounds; about 7,500 (2.1%) were called active. Inconclusive results (about 20%) are left out. The call rests on the fitted dose curve; in most records, active means well fitted inhibition curve with a large enough effect; inconclusive means small, poorly fitted or top-dose-only effect, or effect the other way; inactive means flat fitted curve, though single readings scatter. Only a selection was taken, and actives are over-represented in it overall.
Bench note: report the call from 1.0 (active), 0.0 (inactive)

Reference set, count: 4
Compound: O=C(c1ccc2c(=O)n(Cc3ccco3)c(=S)[nH]c2c1)N1CCCC1
Category Label: 0.0

Compound: Cc1ccc(C)c(N2CCN(CCCNC(=O)Nc3ccc(Cl)cc3)CC2)c1
Category Label: 0.0

Compound: COc1ccc(S(=O)(=O)N2CCN(C(=S)NCC3CCCO3)CC2)cc1OC (stereo not given)
Category Label: 0.0

Compound: Cc1cccc(CSc2nnc(Cn3c(=O)sc4ccccc43)n2C)c1
Category Label: 0.0

GET /call?item= CCCCN1CC(c2nc3ccccc3n2CCCCOc2ccc(C)cc2C)CC1=O (stereo not given) returns the recorded outcome of this test. 0.0

GET /call?item= "COC(=O)c1ccc(N2CCOCC2)c(NC(=O)c2ccc3c(c2)OCCO3)c1" returns the recorded outcome of this test. 0.0

GET /call?item= "COc1ccc(-c2c(-c3cc(OC)cc(OC)c3)n(C)c3ccc(-c4ccn[nH]4)cc23)cc1" returns the recorded outcome of this test. 1.0

GET /call?item= "CCCCOc1ccc(-c2ncc(C(=O)OCC)c(N)n2)cc1" returns the recorded outcome of this test. 0.0

GET /call?item= "Cc1ccc(/C=C(\C#N)C(=O)Nc2cc(C)ccc2C)cc1" returns the recorded outcome of this test. 0.0

GET /call?item= "COc1ccc(S(=O)(=O)N(C)C[C@H]2Oc3c(NC(=O)Nc4ccc5c(c4)OCO5)cccc3C(=O)N([C@H](C)CO)C[C@@H]2C)cc1" returns the recorded outcome of this test. 0.0

GET /call?item= "CCOc1ccccc1NC(=O)c1ccc2c(c1)CCN2S(=O)(=O)c1ccc(C)cc1" returns the recorded outcome of this test. 0.0

GET /call?item= Cc1ccc(CNC(=O)C2CCCN(S(C)(=O)=O)C2)cc1 (stereo not given) returns the recorded outcome of this test. 0.0

GET /call?item= O=C1CC(c2ccccc2)CC2=C1C(c1ccco1)n1nc(C(F)(F)F)nc1N2 (stereo not given) returns the recorded outcome of this test. 0.0

GET /call?item= "COc1cc(OC)cc(-c2c(-c3cccs3)c3cc(-c4ccc(OC)nc4)ccc3n2C)c1" returns the recorded outcome of this test. 0.0

GET /call?item= "COc1ccc2cc(CNc3ccc(OC)c(OC)c3)c(=O)n(CC(=O)Nc3ccccc3F)c2c1" returns the recorded outcome of this test. 0.0

----------
Assay: Nrf2 qHTS screen for inhibitors; further: nearly all actives have a fitted effect of over 60% in size; further: potency means the concentration at half of the fitted maximal effect
Settings: A549 ARE-Fluc reporter, luciferase luminescence, 18-24 h; series mostly up to 46 µM
The campaign covered roughly 360,000 compounds. About 7,500 (2.1%) were called active. Inconclusive results (about 20%) are left out. Many of the other results were omitted from the sample, so actives are more common in it than they were.
Reported Property: Potency

Example entries and their recorded answers appear below.
Compound: Cc1ccccc1-c1ccc(Nc2ccc(C(=O)N3CCOCC3)cc2)nn1
Reported Property: Potency
Result: inactive

Compound: Cc1ccc(-c2cn3c(n2)sc2cc(C(=O)NCCCc4ccccc4)ccc23)cc1
Reported Property: Potency
Result: inactive

Compound: Cc1cc(NC(=O)CSc2nnnn2-c2ccc(F)cc2)no1
Reported Property: Potency
Result: inactive

Compound: O=C1OC(OC(=O)c2ccccc2Br)C(N2CCOCC2)=C1Cl (stereo unspecified)
Reported Property: Potency
Result: inactive

Fill in the blank: the reported Potency of "Cc1ccccc1C(=O)O" is ____. inactive

Fill in the blank: the reported Potency of "CCN(CC)C(=O)[C@H]1C[C@H](CC(=O)NCC23CC4CC(CC(C4)C2)C3)C(=O)N2CCc3c([nH]c4cc(CCC(=O)N(C)C)ccc34)[C@]12C" is ____. inactive

Fill in the blank: the reported Potency of "COc1ccc(-n2nnnc2SCC(=O)NCc2cccs2)cc1" is ____. inactive

Fill in the blank: the reported Potency of "Cc1cc(C)cc(NC(=O)CSc2nc3nccnc3c(=O)n2CCc2c[nH]c3ccccc23)c1" is ____. inactive

Fill in the blank: the reported Potency of "Cc1ccc(N=C2NC(=O)/C(=C/C=C/c3ccco3)S2)cc1C" is ____. inactive

Fill in the blank: the reported Potency of "Fc1ccc2[nH]c3c(N4CCSCC4)ncnc3c2c1" is ____. 18.4 µM (active)

Fill in the blank: the reported Potency of "O=C(CN1C(=O)NC(Cc2ccccc2)(Cc2ccccc2)C1=O)NCC1CCCCC1" is ____. 23.1 µM (active)
